Biological target: T1, U2AF1 (human, UniProt Q01081 1-240)
T1 sequence: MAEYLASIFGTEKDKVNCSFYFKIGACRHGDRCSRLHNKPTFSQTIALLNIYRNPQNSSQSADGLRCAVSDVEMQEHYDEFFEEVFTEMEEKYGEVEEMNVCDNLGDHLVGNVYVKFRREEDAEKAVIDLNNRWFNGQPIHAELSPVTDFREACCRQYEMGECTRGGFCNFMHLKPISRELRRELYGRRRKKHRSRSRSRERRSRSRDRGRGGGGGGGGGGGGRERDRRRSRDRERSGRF
Assay: fluorescence anisotropy; Anisotropy: 10 nM probe, 10 mM Tris-HCl pH 7.5, 1 mM EDTA, 100 mM KCl, 0.1 mM DTT, 10 ug/mL BSA, 30 min on ice; EMSA same but Tris pH 8.0, 6% native PAGE in 1x
Details: protein: recombinant; tags: His6 (pET30a); label: 5' Cy3
Parameter Measured: Kd
Give your result as the value with the unit written after it.

Ask: Please give the measured Kd for this binder: UUUUAGGU (ssRNA) [U2AF1_RNA Motif (AG motif)]
Reply: 350 nM
